These entries and their values trace back to patent US20140155415A1.

- EXPERIMENTAL TARGET: GK-GKRP (interaction between glucokinase and glucokinase regulatory protein) (Homo sapiens, UniProt Q14397)
- Construct: made in house; host or cells: GKRP: baculovirus system
- Sequence (Q14397 whole entry): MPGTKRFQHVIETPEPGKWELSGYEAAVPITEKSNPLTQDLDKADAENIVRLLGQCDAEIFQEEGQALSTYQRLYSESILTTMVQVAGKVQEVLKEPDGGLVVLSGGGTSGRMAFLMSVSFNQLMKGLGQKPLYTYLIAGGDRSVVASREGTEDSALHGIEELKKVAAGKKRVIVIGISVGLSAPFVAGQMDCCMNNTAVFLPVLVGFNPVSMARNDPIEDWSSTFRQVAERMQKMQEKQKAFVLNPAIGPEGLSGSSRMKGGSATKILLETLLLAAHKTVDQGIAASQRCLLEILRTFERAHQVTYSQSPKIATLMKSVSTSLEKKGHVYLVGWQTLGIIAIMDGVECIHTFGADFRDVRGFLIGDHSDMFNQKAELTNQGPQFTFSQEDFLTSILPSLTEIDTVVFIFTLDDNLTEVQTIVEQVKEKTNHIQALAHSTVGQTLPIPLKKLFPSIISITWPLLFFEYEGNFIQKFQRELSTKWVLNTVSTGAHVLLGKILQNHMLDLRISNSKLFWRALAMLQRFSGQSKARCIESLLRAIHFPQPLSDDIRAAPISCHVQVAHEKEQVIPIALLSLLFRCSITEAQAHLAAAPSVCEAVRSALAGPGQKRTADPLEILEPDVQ
- MEASUREMENT PROTOCOL: GK-GKRP Binding Assay (Binding), AlphaScreen
- REPORTED CONDITIONS: avi-tagged GKRP, GK-fluorescein, AlphaScreen beads, 1 μM sorbitol-6-phosphate; read-out: GK-GKRP IC50 (Binding)
VALUE KIND: IC50 (nM)
Use nM as the unit, but write only the number.

Guide cases for IC50, answers given:
INSERT INTO assay_data (molecule, value_kind, reading_unit, recorded_value) VALUES
  ('CCc1ccccc1[C@@H](NS(=O)(=O)c1ccc2c(c1)OCCCO2)c1cc2ccccc2s1 (single isomer, unassigned) [Example 37 Peak #2]', 'IC50', 'nM', 130),
  ('O=S(=O)(NC(c1cc2ccccc2o1)c1nccs1)c1ccc2c(c1)OCCCO2 (racemic) [Example 34]', 'IC50', 'nM', 6600),
  ('Cc1ccccc1[C@H](NS(=O)(=O)c1ccc2c(c1)OCCCO2)c1cc2ccccc2s1 (single isomer, unassigned) [Example 36 Peak #1]', 'IC50', 'nM', 4000);

*Q* Query IC50 for O=S(=O)(NC(c1ccccc1)c1ccc2ccccc2n1)c1ccc2c(c1)OCCCO2 (racemic) [Example 56]
*A* 1400

*Q* # return recorded IC50 for input CSc1ccccc1C(NS(=O)(=O)c1ccc2c(c1)OCCO2)c1cc2ccccc2s1 (racemic) [Example 75]
*A* 950

*Q* Fill in IC50 for record COc1ccccc1[C@@H](NS(=O)(=O)c1ccc2c(c1)OCCCO2)c1nc2cccnc2s1 (single isomer, unassigned) [Example 67 Peak #2]
*A* 48

*Q* Given COc1ccc(S(=O)(=O)N[C@@H](c2cc3cccc(-c4cc(C(O)(C(F)(F)F)C(F)(F)F)ccn4)c3s2)c2ccccc2Cl)cc1OC [Example 82] , respond with its IC50.
*A* 907
